Reference source for all entries: the emibetuzumab library of Makowski et al. (2022)

B1: VH:VL chains; a variant is named by its letters at X, in order (parent)
chain 1: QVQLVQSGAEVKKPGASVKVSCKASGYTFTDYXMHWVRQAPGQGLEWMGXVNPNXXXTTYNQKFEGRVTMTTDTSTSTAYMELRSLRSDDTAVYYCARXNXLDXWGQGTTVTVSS
chain 2: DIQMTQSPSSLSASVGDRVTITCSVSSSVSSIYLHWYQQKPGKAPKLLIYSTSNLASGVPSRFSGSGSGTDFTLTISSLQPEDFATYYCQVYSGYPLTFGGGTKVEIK

# Variants of: B1
# MEASUREMENT DESCRIPTION: yeast display scFab, FACS + sequencing
# ASSAY CONTEXT: with MET
Some of the results follow. How many sequences the whole screen found active is unknown.
READOUT KIND: antigen binding call

>>> test_result("VTTEASLD")
"no binding"
>>> test_result("DAGGAAGD")
"no binding"
>>> test_result("YRARSAWA")
"binds"
>>> test_result("YEGTGAVF")
"no binding"
>>> test_result("YKRGGSSY")
"binds"
>>> test_result("SEARSDSV")
"no binding"
>>> test_result("FKARDSSA")
"no binding"
>>> test_result("ATGRASLD")
"no binding"
>>> test_result("VAGGDALD")
"no binding"
>>> test_result("VERGGDSY")
"no binding"
>>> test_result("VRAGDSGY")
"binds"
>>> test_result("FRAEGSLD")
"binds"
>>> test_result("SEARSAVA")
"no binding"
>>> test_result("YRKGAALA")
"binds"
>>> test_result("YAGRGDVF")
"no binding"
>>> test_result("YRRRGASF")
"binds"
>>> test_result("VAGTGDLY")
"no binding"
>>> test_result("YRERSSVA")
"binds"
>>> test_result("YRGRGAWF")
"binds"
>>> test_result("VTGEDDWD")
"no binding"
>>> test_result("VAGTGSSA")
"no binding"
>>> test_result("AGGGNDGV")
"no binding"
>>> test_result("YRGRSALA")
"binds"
>>> test_result("VRTEDSLV")
"no binding"
>>> test_result("YRATDFVV")
"no binding"
>>> test_result("YRAGDSGY")
"binds"
>>> test_result("VGKGDDAA")
"no binding"
>>> test_result("SEARSAWA")
"no binding"
>>> test_result("DARGGSSY")
"no binding"
>>> test_result("FGAATDGV")
"no binding"
>>> test_result("YRGKGALA")
"binds"
>>> test_result("SEREADWF")
"no binding"
